targetDesc: 5-HT2A receptors (Rattus norvegicus)
Construct: membranes from rat brain (cortex) in vitro; from tissue; host or cells: rat brain cortex membranes
Sequence (P14842 whole entry): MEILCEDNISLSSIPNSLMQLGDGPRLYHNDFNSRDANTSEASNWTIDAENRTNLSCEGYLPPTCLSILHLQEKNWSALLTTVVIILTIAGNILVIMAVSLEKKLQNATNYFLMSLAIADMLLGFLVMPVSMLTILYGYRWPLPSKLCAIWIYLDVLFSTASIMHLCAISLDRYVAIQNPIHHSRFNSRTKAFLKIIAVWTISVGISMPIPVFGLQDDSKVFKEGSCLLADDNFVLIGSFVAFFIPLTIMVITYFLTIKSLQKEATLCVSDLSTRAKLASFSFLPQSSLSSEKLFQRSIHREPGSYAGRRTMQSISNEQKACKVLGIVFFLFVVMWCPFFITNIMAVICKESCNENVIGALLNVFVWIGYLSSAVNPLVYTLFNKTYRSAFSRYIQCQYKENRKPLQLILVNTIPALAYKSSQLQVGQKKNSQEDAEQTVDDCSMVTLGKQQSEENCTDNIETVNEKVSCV
testName: Inhibition of the binding of [3H]Ketanserin to 5-HT2A receptors
testSettings: [3H]Ketanserin 0.50 nM, membranes from rat brain (cortex); read-out: 5-HT2A-binding (IC50)
measuredProperty: IC50 (µM)

[[record]]
molecule = "O=C1CCc2ccccc2N1CCCCN1CCN(c2ccc3[nH]ccc3c2)CC1"
reportedresult = 0.017

[[record]]
molecule = "O=C1CCc2ccccc2N1CCCN1CCN(c2ccc3[nH]ccc3c2)CC1"
reportedresult = 0.013

[[record]]
molecule = "c1ccc2c(c1)CCCN2CCCN1CCN(c2ccc3[nH]ccc3c2)CC1 [Compound 4b]"
reportedresult = 0.019

[[record]]
molecule = "c1ccc2c(c1)CCCN2CCCN1CCN(c2ccc3[nH]ccc3c2)CC1 [Compound 4a]"
reportedresult = 0.027


A: O=C1CCc2ccccc2N1CCCN1CCC(c2ccc3[nH]ccc3c2)CC1
B: O=C1CCc2ccccc2N1CCCN1CCN(c2ccc3cc[nH]c3c2)CC1
Just tell me: smaller IC50 value, A or B ? Reply with the label of the item you choose.
A
(A: 0.022 µM, B: 0.032 µM)
